target: P450ZoGa (CYP236A2, WP_013995999) (Zobellia galactanivorans); experiment: crystal structure of soaked complex
Sequence (G0L713 1-387): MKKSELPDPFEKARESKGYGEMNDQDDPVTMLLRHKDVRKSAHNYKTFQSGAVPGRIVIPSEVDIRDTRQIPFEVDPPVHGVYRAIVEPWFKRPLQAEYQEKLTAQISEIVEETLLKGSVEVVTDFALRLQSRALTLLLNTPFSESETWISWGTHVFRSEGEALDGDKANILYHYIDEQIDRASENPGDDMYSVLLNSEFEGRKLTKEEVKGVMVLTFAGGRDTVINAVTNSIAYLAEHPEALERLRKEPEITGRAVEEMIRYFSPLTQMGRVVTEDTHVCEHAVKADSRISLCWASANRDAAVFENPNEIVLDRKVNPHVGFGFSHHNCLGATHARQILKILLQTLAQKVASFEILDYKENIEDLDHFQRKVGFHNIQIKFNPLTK
Measured Attribute: Kd (µM)
Expressed in µM, but write only the number.

Reported Kd for COC[C@H]1OC(O)[C@H](O)[C@@H](O)[C@H]1O (stereo partly shown) was 980
